# Assay target: Testis-specific serine/threonine-protein kinase 1 (Homo sapiens)
# Sequence (Q9BXA7 whole entry): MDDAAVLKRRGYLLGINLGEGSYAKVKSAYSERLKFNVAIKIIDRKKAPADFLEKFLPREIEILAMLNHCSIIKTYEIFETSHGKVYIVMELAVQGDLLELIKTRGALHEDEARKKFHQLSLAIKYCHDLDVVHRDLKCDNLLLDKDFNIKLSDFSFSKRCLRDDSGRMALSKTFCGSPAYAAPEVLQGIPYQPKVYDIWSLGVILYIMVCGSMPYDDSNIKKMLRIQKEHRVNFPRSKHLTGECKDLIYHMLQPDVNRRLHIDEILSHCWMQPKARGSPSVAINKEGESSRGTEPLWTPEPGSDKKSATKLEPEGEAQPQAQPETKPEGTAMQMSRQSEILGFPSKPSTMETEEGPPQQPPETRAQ
Property label: IC50

Exercise: Name the reported IC50 value associated with the compound `Cl.Cn1nccc1-c1ccc(C(=O)N[C@@H]2CNCC[C@H]2c2ccc(F)c(F)c2)c(F)c1`
Key: > 10 µM

---

# Assay target: Phosphatidylinositol 4,5-bisphosphate 3-kinase catalytic subunit alpha isoform (Homo sapiens, UniProt P42336)
# Sequence (P42336 whole entry, canonical isoform): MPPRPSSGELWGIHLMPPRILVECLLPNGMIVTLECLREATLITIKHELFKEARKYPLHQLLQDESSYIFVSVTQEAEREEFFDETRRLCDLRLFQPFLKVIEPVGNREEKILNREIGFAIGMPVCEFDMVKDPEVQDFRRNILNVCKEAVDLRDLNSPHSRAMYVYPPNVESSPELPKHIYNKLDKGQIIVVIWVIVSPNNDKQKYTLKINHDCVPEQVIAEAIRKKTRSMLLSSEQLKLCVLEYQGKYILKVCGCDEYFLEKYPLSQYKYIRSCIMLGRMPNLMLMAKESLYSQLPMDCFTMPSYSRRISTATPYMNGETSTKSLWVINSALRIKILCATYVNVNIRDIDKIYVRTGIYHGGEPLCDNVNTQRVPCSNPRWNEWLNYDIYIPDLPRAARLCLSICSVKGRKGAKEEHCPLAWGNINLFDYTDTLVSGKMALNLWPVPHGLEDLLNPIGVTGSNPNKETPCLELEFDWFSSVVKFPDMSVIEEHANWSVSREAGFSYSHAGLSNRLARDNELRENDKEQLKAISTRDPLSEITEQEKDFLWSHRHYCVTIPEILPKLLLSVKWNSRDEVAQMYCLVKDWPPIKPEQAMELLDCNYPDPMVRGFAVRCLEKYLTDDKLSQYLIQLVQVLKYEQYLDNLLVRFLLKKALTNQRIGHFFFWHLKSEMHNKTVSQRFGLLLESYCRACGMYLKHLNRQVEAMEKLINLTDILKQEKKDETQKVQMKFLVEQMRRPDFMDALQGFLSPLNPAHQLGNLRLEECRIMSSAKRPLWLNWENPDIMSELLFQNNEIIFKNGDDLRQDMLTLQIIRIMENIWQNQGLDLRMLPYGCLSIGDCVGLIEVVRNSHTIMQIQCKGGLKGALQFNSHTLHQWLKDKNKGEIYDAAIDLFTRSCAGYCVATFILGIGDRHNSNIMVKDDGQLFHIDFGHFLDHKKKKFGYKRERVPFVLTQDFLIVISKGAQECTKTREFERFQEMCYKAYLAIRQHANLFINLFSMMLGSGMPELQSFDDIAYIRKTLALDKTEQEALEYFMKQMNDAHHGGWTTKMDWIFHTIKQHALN
# Assay protocol: Inhibition of PI3Kalpha (unknown origin)
pIC50: −log10 of the molar value.
Property label: pIC50

Exercise: Name the reported pIC50 value associated with the compound `Cl.Cn1nccc1-c1ccc(C(=O)N[C@@H]2CNCC[C@H]2c2ccc(F)c(F)c2)c(F)c1`
Key: < 5.00

---

# Assay protocol: Toxicity in mouse assessed as maximum toxicity dose
# Assay conditions: in vivo
Property label: MTD (mg/kg)
One number for each entry, in mg/kg.

Exercise: Name the reported MTD value associated with the compound `Cl.Cn1nccc1-c1ccc(C(=O)N[C@@H]2CNCC[C@H]2c2ccc(F)c(F)c2)c(F)c1`
Key: 150

---

# Assay protocol: Microsomal stability in human liver microsomes assessed as intrinsic clearance at 50 uM preincubated for 5 mins with NADPH followed by compound addition and measured upto 60 mins by LC-MS/MS analysis
# Type: ADME, Microsome
# Assay conditions: read-out: CLH
Property label: microsomal CLint at 50 µM (µL/min/mg)
One number for each entry, in µL/min/mg.

Exercise: Name the reported microsomal CLint at 50 µM value associated with the compound `Cl.Cn1nccc1-c1ccc(C(=O)N[C@@H]2CNCC[C@H]2c2ccc(F)c(F)c2)c(F)c1`
Key: 1.4

---

# Assay target: Ribosomal protein S6 kinase alpha-5 (Homo sapiens)
# Sequence (O75582 whole entry): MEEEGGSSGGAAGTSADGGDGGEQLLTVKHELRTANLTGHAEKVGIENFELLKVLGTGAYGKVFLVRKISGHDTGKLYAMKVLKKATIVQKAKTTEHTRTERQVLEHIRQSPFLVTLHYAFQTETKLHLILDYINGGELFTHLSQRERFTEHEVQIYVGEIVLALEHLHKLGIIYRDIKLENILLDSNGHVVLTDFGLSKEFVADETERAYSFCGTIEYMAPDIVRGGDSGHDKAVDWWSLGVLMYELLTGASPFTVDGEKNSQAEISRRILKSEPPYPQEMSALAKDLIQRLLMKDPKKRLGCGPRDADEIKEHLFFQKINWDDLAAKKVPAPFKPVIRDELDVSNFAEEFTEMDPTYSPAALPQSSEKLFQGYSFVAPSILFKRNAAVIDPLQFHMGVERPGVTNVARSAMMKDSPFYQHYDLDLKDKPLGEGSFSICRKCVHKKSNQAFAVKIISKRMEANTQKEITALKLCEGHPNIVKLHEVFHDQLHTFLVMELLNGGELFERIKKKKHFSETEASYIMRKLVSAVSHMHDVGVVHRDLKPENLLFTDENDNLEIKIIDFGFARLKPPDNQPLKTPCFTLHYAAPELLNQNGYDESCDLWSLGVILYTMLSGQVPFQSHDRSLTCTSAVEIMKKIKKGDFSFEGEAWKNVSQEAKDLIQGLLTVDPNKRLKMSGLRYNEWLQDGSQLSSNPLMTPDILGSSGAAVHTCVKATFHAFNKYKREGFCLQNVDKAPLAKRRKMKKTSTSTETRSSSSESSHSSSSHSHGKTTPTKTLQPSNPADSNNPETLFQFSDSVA
pIC50: −log10 of the molar value.
Property label: pIC50

Exercise: Name the reported pIC50 value associated with the molecule `Cl.Cn1nccc1-c1ccc(C(=O)N[C@@H]2CNCC[C@H]2c2ccc(F)c(F)c2)c(F)c1`
Key: < 5.00

---

# Assay target: UniProtKB P10635
# Sequence (P10635 whole entry): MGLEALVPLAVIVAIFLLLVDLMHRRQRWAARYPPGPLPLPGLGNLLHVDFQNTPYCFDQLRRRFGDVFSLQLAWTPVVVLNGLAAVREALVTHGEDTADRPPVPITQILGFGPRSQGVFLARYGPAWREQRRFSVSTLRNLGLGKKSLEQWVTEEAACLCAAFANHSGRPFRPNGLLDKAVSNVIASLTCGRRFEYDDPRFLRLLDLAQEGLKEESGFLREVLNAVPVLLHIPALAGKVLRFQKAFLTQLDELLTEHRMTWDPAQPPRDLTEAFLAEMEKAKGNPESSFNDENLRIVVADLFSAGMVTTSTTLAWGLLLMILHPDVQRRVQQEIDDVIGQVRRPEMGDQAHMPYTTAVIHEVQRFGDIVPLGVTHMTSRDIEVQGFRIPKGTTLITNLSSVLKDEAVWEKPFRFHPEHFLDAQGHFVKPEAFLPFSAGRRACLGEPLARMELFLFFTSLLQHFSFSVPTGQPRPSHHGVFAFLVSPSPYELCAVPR
pIC50: −log10 of the molar value.
Property label: pIC50

Exercise: Name the reported pIC50 value associated with the molecule `Cl.Cn1nccc1-c1ccc(C(=O)N[C@@H]2CNCC[C@H]2c2ccc(F)c(F)c2)c(F)c1`
Key: < 4.00

---

# Assay protocol: Toxicity in Beagle dog assessed as maximum toxicity dose
# Design: species or system Canis lupus familiaris
# Assay conditions: in vivo
Property label: MTD (mg/kg)
Give bare numbers, in mg/kg.

Exercise: Name the reported MTD value associated with the compound `Cl.Cn1nccc1-c1ccc(C(=O)N[C@@H]2CNCC[C@H]2c2ccc(F)c(F)c2)c(F)c1`
Key: 100
